Molecular target: T1, Anti-PSMA Fab (SEQ ID NOs: 19, 20)
T1 construct: Biotinylated PSMA Fab captured on neutravidin coated plates in the phage ELISA; also called 006 PSMA Fab
Experiment: phage ELISA; biotinylated PSMA Fab on neutravidin plate, clonal phage supernatant, anti-M13 HRP detection;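 note: wells preincubated with PSMA antigen in blocking buffer or with blocking buffer only before clonal phage were added for a short incubation, then bound phage detected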
Observation type: Phage binding ELISA, Anti-PSMA Fab (SEQ ID NOs: 19, 20) signal

Previously resolved entries follow.
The binder listed as EHKWCIPDWMCMVA (Clonal phage of the Peptide-180 library, tested as crude supernatant; not shown: fused to the pIII filament of the bacteriophage) [Phage-2153] has a reported Phage binding ELISA, Anti-PSMA Fab (SEQ ID NOs: 19, 20) signal of 1.67

Short answer for EGRWCIPSWMCVGV (Clonal phage of the Peptide-180 library, tested as crude supernatant; not shown: fused to the pIII filament of the bacteriophage) [Phage-2155] : Phage binding ELISA, Anti-PSMA Fab (SEQ ID NOs: 19, 20) signal was 1.67

binder ITNWCKPAWMCEVS (Clonal phage of the Peptide-180 library, tested as crude supernatant; not shown: fused to the pIII filament of the bacteriophage) [Phage-2149] , Phage binding ELISA, Anti-PSMA Fab (SEQ ID NOs: 19, 20) signal observed: 1.68

Reported Phage binding ELISA, Anti-PSMA Fab (SEQ ID NOs: 19, 20) signal of VHIWCIPQWMCMDR (Clonal phage of the Peptide-180 library, tested as crude supernatant; not shown: fused to the pIII filament of the bacteriophage) [Phage-2150] : 1.68

Phage binding ELISA, Anti-PSMA Fab (SEQ ID NOs: 19, 20) signal recorded for this binder, VSKWCTPEWMCTGF (Clonal phage of the Peptide-180 library, tested as crude supernatant; not shown: fused to the pIII filament of the bacteriophage) [Phage-2156] , is 1.67

Further cases:
Recorded Phage binding ELISA, Anti-PSMA Fab (SEQ ID NOs: 19, 20) signal (binder VEKWCIPQWMCVSQ (Clonal phage of the Peptide-180 library, tested as crude supernatant; not shown: fused to the pIII filament of the bacteriophage) [Phage-2147] ): 1.69

Field Phage binding ELISA, Anti-PSMA Fab (SEQ ID NOs: 19, 20) signal (entry YEIRCIPPWMCAFD (Clonal phage of the Peptide-180 library, tested as crude supernatant; not shown: fused to the pIII filament of the bacteriophage) [Phage-2151] ) reads 1.68

All values here come from patent US20260242478A1.
